# Measurement Protocol: Apparent solubility by UV-VIS spectroscopy after 100 nm filtration
# Type: physicochemical
# Assay Setup: thermodynamic from solid; redispersed at 2 mg/mL in ultrapurified water, room temperature
Observed Property: solubility (µg/mL)

[[record]]
compound = "Cc1ccc(-c2cc(C(F)(F)F)nn2-c2ccc(S(N)(=O)=O)cc2)cc1 [crystalline Celecoxib (micronized)]"
observed_property = "solubility"
obs_value = 2.85


###

# Measurement Protocol: In-vivo PK test in beagle dogs
# Assay Setup: dog, plasma, 5 mg/kg; oral, dispersed granulates, beagle dogs following a high-fat meal
Observed Property: Tmax (h)

[[record]]
compound = "Cc1ccc(-c2cc(C(F)(F)F)nn2-c2ccc(S(N)(=O)=O)cc2)cc1 [crystalline Celecoxib (micronized)]"
obs_value = 2


###

# Measurement Protocol: PAMPA permeability
# Type: in vitro ADME
# Assay Setup: pH 7, in water, FaSSIF and FeSSIF
Observed Property: Papp at 4 h

[[record]]
molecule = "Cc1ccc(-c2cc(C(F)(F)F)nn2-c2ccc(S(N)(=O)=O)cc2)cc1 [crystalline Celecoxib (micronized)]"
obs_value = "< 0.2 ×10⁻⁶ cm/s"


src = patent US10507214B2
